fraction unbound overview
- assay details: Protein binding in dog plasma
- Format: ADME, cell-free, Canis lupus familiaris
- condition set: read-out: PPB (converted)

Examples with their reported fraction unbound follow.
| molecular string | fraction unbound |
| --- | --- |
| Cc1nc2ncccc2cc1-c1ccc2cc(CCN3CCC[C@H]3C)ccc2n1 | 0.57 |
| Cc1nn(C)cc1-c1ccc2cc(CCN3CCC[C@H]3C)ccc2n1 | 0.42 |
| Cc1cc2ncc(-c3ccc4cc(CCN5CCC[C@H]5C)ccc4n3)c(C)n2n1 | 0.4 |

Problem: State its fraction unbound: C[C@@H]1CCCN1CCc1cc2cc(-c3ccc(C#N)cc3)ccc2o1
Result: 0.09

This collection of values is drawn from ChEMBL document CHEMBL1137580.
